System: BJ
Procedure Details: Cytotoxicity against human BJ cells after 72 hrs by luminescence assay
Type: cell-based
Property Name: Activity

A selection of reference data follows.
Compound	Assay Result
Cl.Nc1ccc(N2CCN(CC(O)COc3ccccc3C(=O)CCc3ccccc3)CC2)cc1 (racemic)	Non-toxic
Cl.O=C(CCc1ccccc1)c1cc(F)ccc1OCC1CO1 (racemic)	Non-toxic
Cl.O=C(CCc1ccccc1)c1cc(F)ccc1OCC(O)CN1CCN(c2ccc(Cl)cc2)CC1 (racemic)	Non-toxic
Cl.O=C(CCc1ccccc1)c1ccccc1OCC(O)CN1CCC(O)(c2ccc(Cl)cc2)CC1 (racemic)	Non-toxic
Cl.O=C(CCc1ccccc1)c1ccccc1OCC(O)CN1CCC(O)(Cc2ccccc2)CC1 (racemic)	Non-toxic

Looking up Cl.O=C(CCc1ccccc1)c1cc(F)ccc1OCC(O)CN1CCN(c2ccccc2Cl)CC1 (racemic) , I found its Activity recorded as Non-toxic

Looking up Cl.O=C(CCc1ccc(F)cc1)c1cc(F)ccc1OCC(O)CN1CCOCC1 (racemic) , I found its Activity recorded as Non-toxic

Looking up Cl.O=C(CCc1ccc(F)cc1)c1cc(F)ccc1OCC(O)CN1CCN(c2ccc(O)cc2)CC1 (racemic) , I found its Activity recorded as Non-toxic

* * *

System: HepG2
Procedure Details: Cytotoxicity against human HepG2 cells after 72 hrs by luminescence assay
Format: cell-based
Recorded Conditions: hepg2, 72 h
Property Name: Activity

A selection of reference data follows.
Molecule	Assay Result
Cl.O=C(CCc1ccccc1)c1cc(F)ccc1OCC(O)CN1CCN(c2ccc(C(F)(F)F)cc2)CC1 (racemic)	Non-toxic
Cl.O=C(CCc1ccc(F)cc1)c1cc(F)ccc1OCC(O)CN1CCN(c2ccc(C(F)(F)F)cc2)CC1 (racemic)	Non-toxic
Cl.O=C(CCc1ccccc1)c1ccccc1OCC(O)CN(C1CCCCC1)C1CCCCC1 (racemic)	Non-toxic
CN(CCc1ccccc1)CC(O)COc1ccccc1C(=O)CCc1ccc(F)cc1.Cl (racemic)	Non-toxic
Cl.O=C(CCc1ccccc1)c1ccccc1OCC(O)CN1CCC(O)(c2ccc(Cl)cc2)CC1 (racemic)	Non-toxic

Could you now look at the following molecule, please?
Looking up Cl.O=C(CCc1ccc(F)cc1)c1ccccc1OCC(O)CN1CCOCC1 (racemic) , I found its Activity recorded as Non-toxic

* * *

Procedure Details: Solubility of the compound in phosphate buffered saline by UV spectrophotometry
Type: physicochemical
Property Name: solubility (µM)
// return numeric value only (unit: µM, not printed)

Looking up Cl.O=C(CCc1ccccc1)c1ccccc1OCC(O)CN1CCN(C(c2ccccc2)c2ccccc2)CC1 (racemic) , I found its solubility recorded as 0.2

Looking up Cl.O=C(CCc1ccccc1)c1cc(F)ccc1OCC(O)CN1CCN(C(c2ccccc2)c2ccccc2)CC1 (racemic) , I found its solubility recorded as 0.11

Looking up Cl.O=C(CCc1ccccc1)c1ccccc1OCC(O)CN1CCC(c2ccccc2)CC1 (racemic) , I found its solubility recorded as 7.27

* * *

Measured On: Voltage-gated inwardly rectifying potassium channel KCNH2 (Homo sapiens)
Sequence (Q12809 whole entry): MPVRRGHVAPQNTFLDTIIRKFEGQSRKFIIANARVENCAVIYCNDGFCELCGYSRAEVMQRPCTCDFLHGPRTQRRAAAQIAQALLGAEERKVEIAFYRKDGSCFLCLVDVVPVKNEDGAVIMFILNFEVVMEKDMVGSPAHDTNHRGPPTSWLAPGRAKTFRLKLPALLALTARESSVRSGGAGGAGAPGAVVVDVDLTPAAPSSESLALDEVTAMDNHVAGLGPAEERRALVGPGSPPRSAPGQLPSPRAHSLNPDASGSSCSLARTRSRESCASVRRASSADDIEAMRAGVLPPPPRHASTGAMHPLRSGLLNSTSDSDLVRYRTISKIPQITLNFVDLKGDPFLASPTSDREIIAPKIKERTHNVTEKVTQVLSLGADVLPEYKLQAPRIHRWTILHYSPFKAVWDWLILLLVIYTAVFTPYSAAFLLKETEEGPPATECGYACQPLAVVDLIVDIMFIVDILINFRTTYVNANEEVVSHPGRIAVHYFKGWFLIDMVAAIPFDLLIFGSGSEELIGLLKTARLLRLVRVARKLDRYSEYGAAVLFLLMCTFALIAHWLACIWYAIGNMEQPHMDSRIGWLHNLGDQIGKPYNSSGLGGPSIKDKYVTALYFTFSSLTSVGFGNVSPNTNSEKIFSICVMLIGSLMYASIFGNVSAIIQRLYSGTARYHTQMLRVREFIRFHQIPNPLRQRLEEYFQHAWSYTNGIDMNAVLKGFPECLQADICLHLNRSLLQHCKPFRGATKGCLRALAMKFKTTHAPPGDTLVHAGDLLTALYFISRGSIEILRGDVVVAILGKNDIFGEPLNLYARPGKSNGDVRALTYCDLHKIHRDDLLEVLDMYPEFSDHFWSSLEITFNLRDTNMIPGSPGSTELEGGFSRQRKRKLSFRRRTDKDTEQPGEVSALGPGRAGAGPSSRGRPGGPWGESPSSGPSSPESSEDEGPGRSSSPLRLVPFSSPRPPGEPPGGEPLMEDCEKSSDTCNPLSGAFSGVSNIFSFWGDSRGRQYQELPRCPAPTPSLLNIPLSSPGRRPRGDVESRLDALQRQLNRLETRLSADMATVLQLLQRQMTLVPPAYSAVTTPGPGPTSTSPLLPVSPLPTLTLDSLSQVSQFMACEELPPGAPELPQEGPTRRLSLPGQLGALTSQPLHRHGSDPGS
Procedure Details: Inhibition of human cloned ERG channel expressed in chinese hamster CHO cells after 5 mins by patch clamp assay
Property Name: pIC50
Convention used: pIC50 is expressed as -log10 of the molar concentration.

Compound	pIC50
Cc1ccc(N2CCN(CC(O)COc3ccccc3C(=O)CCc3ccccc3)CC2)cc1.Cl (racemic)	5.37

Could you now look at the following compound, please?
Looking up Cl.O=C(CCc1ccccc1)c1ccccc1OCC(O)CN1CCN(C(c2ccccc2)c2ccccc2)CC1 (racemic) , I found its pIC50 recorded as 5.59

meta.source: ChEMBL document CHEMBL1914304
